Each record here notes measured MIC.
- Tested on: Escherichia coli
- method-description: Minimum inhibitory concentration against Escherichia coli KC14 strain
- Type: functional

| compound | uom | bound-operator | MIC |
| --- | --- | --- | --- |
| CC1COc2c(N3CCN(C)CC3)c(F)cc3c(=O)c(C(=O)O)cn1c23 (centres undefined) [OFLOXACIN] | µg/mL | = | 0.05 |
| NCC1CN(c2c(F)cc3c(=O)c(C(=O)O)cn(C4CC4)c3c2F)CCO1 (centres undefined) | µg/mL | = | 0.05 |
| CNCC1CN(c2c(F)cc3c(=O)c(C(=O)O)cn(C4CC4)c3c2F)CCO1 (centres undefined) | µg/mL | = | 0.05 |
| CN(C)CC1CN(c2c(F)cc3c(=O)c(C(=O)O)cn(C4CC4)c3c2F)CCO1 (centres undefined) | µg/mL | = | 0.05 |
| O=C(O)c1cn(C2CC2)c2cc(N3CCNCC3)c(F)cc2c1=O [CIPROFLOXACIN] | µg/mL | < | 0.006 |
| NCC1CN(c2cc3c(cc2F)c(=O)c(C(=O)O)cn3C2CC2)CCO1 (centres undefined) | µg/mL | = | 0.1 |
| CCn1cc(C(=O)O)c(=O)c2cc(F)c(N3CCNCC3)cc21 [NORFLOXACIN] | µg/mL | = | 0.05 |
| CCn1cc(C(=O)O)c(=O)c2cc(F)c(N3CCOC(CN)C3)c(F)c21 (centres undefined) | µg/mL | = | 0.39 |
| O=C(O)c1cn(C2CC2)c2c(F)c(N3CCOCC3)c(F)cc2c1=O | µg/mL | = | 0.1 |
